molecular target: NUDT7 (Homo sapiens); construct: residues 14-235, E. coli, pNIC28-Bsa4, N-terminal His6 tag removed by TEV, construct 26672 Da; set-up: Intact protein LC/MS covalent labelling, fragments in pools of five, 200 uM each, 4 °C; conditions: 24 h, 4 °C, pool of five; 200 µM; covalent
Sequence (P0C024 14-235): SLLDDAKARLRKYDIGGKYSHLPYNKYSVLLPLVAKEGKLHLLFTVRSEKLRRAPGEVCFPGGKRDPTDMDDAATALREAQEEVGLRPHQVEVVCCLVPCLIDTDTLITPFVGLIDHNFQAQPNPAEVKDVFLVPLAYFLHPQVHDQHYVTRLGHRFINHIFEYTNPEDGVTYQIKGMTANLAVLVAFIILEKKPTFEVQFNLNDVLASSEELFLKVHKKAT
ASSAY ENDPOINT: NUDT7
Give the figure only, with no unit attached.

>  <MOLECULE>
C=CC(=O)NC1(C(=O)N2CCN(C)CC2)CCCC1

>  <NUDT7>
0

$$$$
>  <MOLECULE>
O=C(Nc1ccccc1)NN(C(=O)CCl)c1ccccc1

>  <NUDT7>
1

$$$$
>  <MOLECULE>
CC(C)(C)NC(=O)NC(=O)CCl

>  <NUDT7>
0

$$$$
>  <MOLECULE>
O=C(CCl)NC(=O)c1cccs1

>  <NUDT7>
0

$$$$
>  <MOLECULE>
C=CC(=O)N1CCCCC1c1ccc(C(=O)NC)n1C (stereo not shown)

>  <NUDT7>
0

$$$$

Qu. # input molecule: CC(C)C(C#N)N1CCN(C(=O)CCl)CC1 (stereo not shown) ; wanted: its NUDT7
Ans. 0.17

Qu. What does the data say about its NUDT7? Entry: CC(C)n1nccc1NC(=O)CCl.Cl
Ans. 0

Qu. I am curious: what NUDT7 value has been reported for CC(NC(=O)NC(=O)CCl)C1CC2CCC1C2 (stereo not shown) ?
Ans. 0

Qu. I'd like to know its NUDT7. The molecule in question is C=CC(=O)NCc1ccc(F)cc1
Ans. 0

Qu. Endpoint output: NUDT7 of Cc1cc(Cl)ccc1NC(=O)CCl . Value?
Ans. 0.08

Qu. Which NUDT7 value belongs to C=CC(=O)N1CCOc2ccccc21 ?
Ans. 0

Qu. Fill blank: measured NUDT7 of the molecule CC1CCCCC1NC(=O)NC(=O)CCl (stereo not shown) is ____.
Ans. 0

Qu. For the molecule shown here, O=C(CCl)NCc1ccc(Cl)s1 , give the reported NUDT7.
Ans. 0

Qu. Find the recorded NUDT7 belonging to O=C(CCl)N1CCN(S(=O)(=O)c2ccccc2F)CC1 and report it.
Ans. 0.14

Qu. # input molecule: CC1(C)C(=O)Nc2ccccc2N1C(=O)CCl ; wanted: its NUDT7
Ans. 0.18

Qu. What value of NUDT7 has been recorded for this entry: O=C(CCl)NNC(=O)CC1CCS(=O)(=O)C1 (stereo not shown)
Ans. 0

Qu. # get_value(readout='NUDT7', item= N#Cc1c(NC(=O)CCl)sc2c1CCCC2 )
Ans. 0.72

Qu. # NUDT7 lookup, item C=CC(=O)N1CCC(c2nc3cccc(C)c3o2)CC1
Ans. 0

Qu. Name the recorded NUDT7 for C=CC(=O)NCc1cc(F)c(C(F)(F)F)cc1F .
Ans. 0

Qu. Field request: NUDT7 | item: O=C(CCl)Nc1cc(Cl)ccc1F
Ans. 0

Qu. Any idea what NUDT7 was measured for O=C(CCl)N1CCN(S(=O)(=O)c2ccc(F)cc2)CC1 ?
Ans. 0.06

Qu. Could you tell me which NUDT7 is on file for CN(C)C(=O)CNC(=O)CCl ?
Ans. 0

Qu. Endpoint output: NUDT7 of O=C(CCl)NC1CCN(C(=O)C2CCCCC2)CC1 . Value?
Ans. 0

Qu. Would you mind telling me what NUDT7 value was observed for O=C(CCl)Nc1nc(-c2cccs2)cs1 ?
Ans. 0.77

Qu. Look up NUDT7 for this molecule: O=C(CCl)Nc1cc(F)cc(F)c1
Ans. 0.18

Qu. # get_value(readout='NUDT7', item= C=CC(=O)Nc1ccc(N2CCOCC2)cc1 )
Ans. 0

* * *

target: NUDT7 (Homo sapiens); construct: residues 14-235, E. coli, pNIC28-Bsa4, N-terminal His6 tag removed by TEV, construct 26672 Da; design: Intact protein LC/MS covalent labelling, fragments in pools of five, 200 uM each, 4 °C; details: 24 h, 4 °C, pool of five; 200 µM; covalent
ASSAY ENDPOINT: NUDT7
Number only, no unit.

Worked cases, NUDT7 given:
>  <COMPOUND>
O=C(CCl)N1CCN(c2ccc([N+](=O)[O-])cc2)CC1 [PCM-0102094]

>  <NUDT7>
0.27

$$$$
>  <COMPOUND>
COC(=O)c1cccc(NC(=O)CCl)c1 [PCM-0103048]

>  <NUDT7>
0

$$$$
>  <COMPOUND>
O=C(CCl)NC(=O)C1COc2ccccc2O1 (stereo not shown) [PCM-0102462]

>  <NUDT7>
0

$$$$
>  <COMPOUND>
O=C(CCl)NCc1ccc(F)cc1 [PCM-0102192]

>  <NUDT7>
0

$$$$
>  <COMPOUND>
O=C(CCl)N1CCSc2ccccc21 [PCM-0102415]

>  <NUDT7>
0.1

$$$$

Qu. Which NUDT7 is listed for C=CC(=O)N1CC(C(=O)NC)C1 [PCM-0102843] ?
Ans. 0

Qu. Which measured NUDT7 value corresponds to O=C(CCl)N1CCOC2CCCCC21 (stereo not shown) [PCM-0102940] ?
Ans. 0

Qu. NUDT7 for C=CC(=O)NC(C)(C)c1noc(C(C)(C)C)n1 [PCM-0102724] ?
Ans. 0

Qu. // lookup NUDT7 for COC(=O)C1(NC(=O)CCl)CCC(C)CC1 (stereo not shown) [PCM-0102827]
Ans. 0

Qu. What measured NUDT7 goes with C=CC(=O)N1CCN(C(=O)OC(C)(C)C)CC1 [PCM-0102419] ?
Ans. 0.16

* * *

target: BSA (Bos taurus); construct: gene ALB; parameters: Intact protein LC/MS covalent labelling, fragments in pools of five, 200 uM each, 4 °C; conditions: 24 h, 4 °C, pool of five; 200 µM; covalent
Sequence (P02769 whole entry, the tested form may be a part): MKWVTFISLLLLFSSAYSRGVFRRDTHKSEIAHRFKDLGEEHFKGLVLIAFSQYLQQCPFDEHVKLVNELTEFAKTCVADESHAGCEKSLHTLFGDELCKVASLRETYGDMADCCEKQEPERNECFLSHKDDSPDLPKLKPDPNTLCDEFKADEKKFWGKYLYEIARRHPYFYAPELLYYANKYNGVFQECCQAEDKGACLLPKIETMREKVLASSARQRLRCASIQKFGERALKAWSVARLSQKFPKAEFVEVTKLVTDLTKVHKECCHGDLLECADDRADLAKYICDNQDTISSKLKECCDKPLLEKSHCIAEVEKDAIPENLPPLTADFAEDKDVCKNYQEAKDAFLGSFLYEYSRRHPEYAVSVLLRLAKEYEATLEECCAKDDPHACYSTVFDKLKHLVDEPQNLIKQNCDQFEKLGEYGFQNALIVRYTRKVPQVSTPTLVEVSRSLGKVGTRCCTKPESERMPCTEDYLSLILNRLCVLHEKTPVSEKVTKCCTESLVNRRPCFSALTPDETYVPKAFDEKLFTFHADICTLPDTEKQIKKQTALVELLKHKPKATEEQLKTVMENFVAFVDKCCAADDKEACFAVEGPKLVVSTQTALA
ASSAY ENDPOINT: BSA
// response body must contain only the number

>  <COMPOUND>
Cc1ccc([N+](=O)[O-])c(NC(=O)CCl)c1C [PCM-0102511]

>  <BSA>
0

$$$$
>  <COMPOUND>
N#Cc1cccc(C(=O)NNC(=O)CCl)c1 [PCM-0102857]

>  <BSA>
0

$$$$

Please look at the following compound next.
Qu. Record O=C(CCl)Nc1nnn[nH]1 [PCM-0102778] : what is its BSA with BSA (Bos taurus)?
Ans. 0

* * *

// viability at 48 h, 10 µM lookup, one value per entry
assay: in vitro; design: species or system CCD841, HEK293; conditions: human, hb2 cells, read-out: HB-2 Cells Viability (%)
Answer format: numeric, % implied, no suffix.

Worked examples follow.
>  <COMPOUND>
CC(C)C(C)(C#N)NC(=O)CCl (stereo not shown) [PCM-0102626]

>  <RESULT UNITS>
%

>  <viability at 48 h, 10 µM>
96.4

$$$$
>  <COMPOUND>
COc1ccc(C2CCCCCN2C(=O)CCl)cc1 (stereo not shown) [PCM-0102558]

>  <RESULT UNITS>
%

>  <viability at 48 h, 10 µM>
27.4

$$$$
>  <COMPOUND>
Cl.O=C(CCl)N1CCN(Cc2ccc(Cl)s2)CC1 [PCM-0102277]

>  <RESULT UNITS>
%

>  <viability at 48 h, 10 µM>
8.6

$$$$
>  <COMPOUND>
O=C(CCl)NNC(=O)CC1CCS(=O)(=O)C1 (stereo not shown) [PCM-0102998]

>  <RESULT UNITS>
%

>  <viability at 48 h, 10 µM>
101

$$$$
>  <COMPOUND>
Cc1nn(C)c(C)c1NC(=O)CCl [PCM-0102949]

>  <RESULT UNITS>
%

>  <viability at 48 h, 10 µM>
93.9

$$$$

Qu. Query: viability at 48 h, 10 µM; subject: O=C(CCl)NC(=O)NC1CCCC1 [PCM-0103001]
Ans. 66.4

Qu. Looking for the measured viability at 48 h, 10 µM of COCC(=O)NC(=O)CCl [PCM-0102904] , can you help?
Ans. 101

Qu. Please give the measured viability at 48 h, 10 µM for this compound: CC(=O)NNC(=O)CCl [PCM-0102310]
Ans. 96.1

Qu. # lookup: viability at 48 h, 10 µM of Cc1cc(C)cc(NC(=O)CCl)c1 [PCM-0102394]
Ans. 31.4

Qu. Look up viability at 48 h, 10 µM for this compound: C=CC(=O)N1CCCCC1c1ccc(C(=O)NC)n1C (stereo not shown) [PCM-0102610]
Ans. 106

Qu. Would you mind telling me what viability at 48 h, 10 µM value was observed for Cl.O=C(CCl)N1CCN(Cc2ccsc2)CC1 [PCM-0102739] ?
Ans. 55.2

Qu. Would you kindly share the measured viability at 48 h, 10 µM for O=C(CCl)Nc1nncs1 [PCM-0102427] ?
Ans. 89.6

Qu. Name the recorded viability at 48 h, 10 µM for C=CC(=O)NCc1c2c(nn1C)CCCC2 [PCM-0103044] .
Ans. 97.2

Qu. Reported viability at 48 h, 10 µM, compound N#CC1(NC(=O)CCl)CCCCC1 [PCM-0102993] : ____
Ans. 87.6
